tested on: Fibroblast; assay: Multiplex assay against human fibroblast; format: toxicity, cell-based; details: 12 h, 1 µM, compound concentration 1 uM, replicate 1
I'd appreciate it if you could supply Population Tubulin-Different-Phenotype (%) values for the items below.
Give bare numbers, in %.

Provide each entry's Population Tubulin-Different-Phenotype (%) from the list below.
1. CCNC1(C(N)=O)CCN(c2ncnc3c2nc(-c2ccccc2Cl)n3-c2ccc(Cl)cc2)CC1
2. CC(=O)NCCc1c(Cc2ccccc2)[nH]c2ccccc12
3. CCCn1c(=O)c2[nH]c(C3CCCC3)nc2n(CCC)c1=O
4. N[C@@]1(C(=O)O)CO[C@H]2[C@H](C(=O)O)[C@H]21
5. COc1ccc2c(c1)C(C(=O)N(Cc1ccc(N(C)C)cc1)c1ccc(C(C)C)cc1)CCC2.Cl (centres undefined)
6. CC1(COc2ccc3c(c2)ncn3-c2ccc3cccc(N4CCC(N)CC4)c3n2)COC1

1: 44; 2: 30; 3: 29; 4: 25; 5: 22; 6: 48
